- Tested on: cervical cancer Hela
- Test details: cells
- Format: cell-based
- Condition summary: cultured 48 h, MTT
Note: every record was labeled by where its IC50 sits among 1: < 4 µM; 2: ≥ 4 µM and < 20 µM; 3: ≥ 20 µM

Solved entries (count: 3):
>>> group_label("COc1cc([C@@H]2c3cc4c(cc3[C@@H](Nc3cccc5cc[nH]c35)[C@@H]3COC(=O)[C@H]23)OCO4)cc(OC)c1OC [Compound 17, 4β-NH-(7-aminoindole) podophyllotoxin]")
1
>>> group_label("COc1cc([C@@H]2c3cc4c(cc3[C@@H](Nc3ccc5c(c3N)C(=O)c3ccccc3C5=O)[C@@H]3COC(=O)[C@H]23)OCO4)cc(OC)c1OC [Compound 3]")
3
>>> group_label("COc1cc([C@@H]2c3cc4c(cc3[C@@H](Nc3ccc5c(c3)C(=O)c3ccc(N)cc3C5=O)[C@@H]3COC(=O)[C@H]23)OCO4)cc(OC)c1OC [Compound 5]")
2

Exercise: read the entry COc1cc([C@@H]2c3cc4c(cc3[C@@H](Nc3nc(N)nc5ccccc35)[C@@H]3COC(=O)[C@H]23)OCO4)cc(OC)c1O [Compound 25] and state which class it falls under.
1

Here is the next compound: COc1cc(C2c3cc4c(cc3C(Nc3ccc5cc[nH]c5c3)C3COC(=O)C23)OCO4)cc(OC)c1O (stereo not drawn) [Compound 35]
3

Here is the next compound: COc1cc(C2c3cc4c(cc3C(Nc3cccc5cnccc35)C3COC(=O)C23)OCO4)cc(OC)c1OC (stereo not drawn) [Compound 9]
1

Here is the next compound: COc1cc(C2c3cc4c(cc3C(Nc3cccc5cc[nH]c35)C3COC(=O)C23)OCO4)cc(OC)c1O (stereo not drawn) [Compound 36]
2

Here is the next compound: COc1cc(C2c3cc4c(cc3C(Nc3ccccc3-c3nc5ccccc5[nH]3)C3COC(=O)C23)OCO4)cc(OC)c1O (stereo not drawn) [Compound 37]
3

Here is the next compound: COc1cc([C@@H]2c3cc4c(cc3[C@@H](Nc3cccc5cn[nH]c35)[C@@H]3COC(=O)[C@H]23)OCO4)cc(OC)c1OC [Compound 14, 4β-NH-(7-indazolamine) podophyllotoxin]
1

Here is the next compound: COc1cc([C@@H]2c3cc4c(cc3[C@@H](Nc3cccc5cccnc35)[C@@H]3COC(=O)[C@H]23)OCO4)cc(OC)c1O [Compound 29]
1

Here is the next compound: COc1cc([C@@H]2c3cc4c(cc3[C@@H](Nc3ccc5[nH]ccc5c3)[C@@H]3COC(=O)[C@H]23)OCO4)cc(OC)c1O [Compound 34]
3

Here is the next compound: COc1cc(C2c3cc4c(cc3C(Nc3ccc5[nH]ncc5c3)C3COC(=O)C23)OCO4)cc(OC)c1O (stereo not drawn) [Compound 31]
2

From: patent US11319328B2
